Can you tell me MIC for the items I'm about to list?
Test system: Streptococcus pneumoniae Stpn_Mef 5654
Test: MIC, broth microdilution (NCCLS)
Assay type: cell-based
Settings: Table 5, Strain ID J (Table 4): S. pneumoniae Stpn_Mef 5654; in µg/mL (unit assumed)
Description: Strains. The bacterial isolates listed in Table 4 were cultivated from −70° C. frozen stocks by two consecutive overnight passages (P1, P2) at 35° C. on 5% blood agar (Remel, Lenexa, Kans.). Chocolate agar (Remel) is used for Haemophilus influenzae. H. influenzae and Streptococcus pneumoniae are incubated in 5-10% CO2 Drug Stock Preparation. […] Susceptibility Testing. MICs are determined by the broth microdilution method in accordance with the NCCLS guidelines. […]
Answers are plain numbers.

# return MIC for each item in the list
1. CC[C@H]1OC(=O)[C@H](C)C(=O)[C@H](C)[C@@H](OC2O[C@H](C)C[C@H](N(C)C)[C@H]2O)[C@@](C)(OC)C[C@@H](C)C(=O)[C@H](C)[C@H]2N(CCCCn3cnc(-c4cccnc4)c3)C(=O)O[C@]12CC (some centres unmarked)
2. CC[C@H]1OC(=O)[C@H](C)C(=O)[C@H](C)[C@@H](OC2O[C@H](C)C[C@H](N(C)C)[C@H]2O)[C@@](C)(OC)C[C@@H](C)C(=O)[C@H](C)[C@@H]2[C@@H]1OC(=O)N2CCCCn1cnc(-c2ccccc2)c1 (some centres unmarked) [Compound 6221]

Response line:
1: 0.4; 2: 0.4

Value sought for every listed compound: MIC.
1. CC[C@H]1OC(=O)[C@H](C)C(=O)[C@H](C)[C@@H](OC2O[C@H](C)C[C@H](N(C)C)[C@H]2O)[C@@](C)(OC)C[C@@H](C)C(=O)[C@H](C)[C@H]2NC(=O)O[C@@H]21 (some centres unmarked)
2. CC[C@H]1OC(=O)[C@H](C)C(=O)[C@H](C)[C@@H](OC2O[C@H](C)C[C@H](N(C)C)[C@H]2O)[C@@](C)(OC)C[C@@H](C)C(=O)[C@H](C)[C@@H]2[C@@H]1OC(=O)N2CCCCn1ccc2ccccc21 (some centres unmarked)
3. CC[C@H]1OC(=O)[C@H](C)C(=O)[C@H](C)[C@@H](OC2O[C@H](C)C[C@H](N(C)C)[C@H]2O)[C@@](C)(OC)C[C@@H](C)C(=O)[C@H](C)[C@@H]2[C@@H]1OC(=O)N2CCCCc1ccnc2ccccc12 (some centres unmarked) [Compound 4711]
4. CC[C@H]1OC(=O)[C@H](C)C(=O)[C@H](C)[C@@H](OC2O[C@H](C)C[C@H](N(C)C)[C@H]2O)[C@@](C)(OC)C[C@@H](C)C2=NCCN3C(=O)O[C@H]1[C@H]3[C@H]2C (some centres unmarked)
5. CC[C@H]1OC(=O)[C@H](C)C(=O)[C@H](C)[C@@H](OC2O[C@H](C)C[C@H](N(C)C)[C@H]2O)[C@@](C)(OC)C[C@@H](C)C(=O)[C@H](C)[C@@H]2[C@@H]1OC(=O)N2CCCCn1cnc(-c2ccccc2)c1 (some centres unmarked) [Compound 4710]
6. CC[C@H]1OC(=O)[C@H](C)C(=O)[C@H](C)[C@@H](OC2O[C@H](C)C[C@H](N(C)C)[C@H]2O)[C@@](C)(OC)C[C@@H](C)C(=O)[C@H](C)[C@@H]2[C@@H]1OC(=O)N2CCCn1cnc(-c2ccccc2)c1 (some centres unmarked)

Response line:
1: 0.2; 2: 0.2; 3: 0.1; 4: 0.78; 5: 0.2; 6: 0.4

* * *

Give MIC for every item shown.
Test system: Staphylococcus epidermidis Step_f50654
Test: MIC, broth microdilution (NCCLS)
Assay type: cell-based
Conditions: Table 7, Strain ID C (Table 6): S. epidermidis Step_f50654; in µg/mL (unit assumed)
Description: Strains. The bacterial isolates listed in Table 4 were cultivated from −70° C. frozen stocks by two consecutive overnight passages (P1, P2) at 35° C. on 5% blood agar (Remel, Lenexa, Kans.). Chocolate agar (Remel) is used for Haemophilus influenzae. H. influenzae and Streptococcus pneumoniae are incubated in 5-10% CO2 Drug Stock Preparation. […] Susceptibility Testing. MICs are determined by the broth microdilution method in accordance with the NCCLS guidelines. […]

CCC1OC(=O)C(C)C(=O)C(C)C(OC2OC(C)CC(N(C)C)C2O)C(C)(OC)CC(C)C(=O)C(C)C2C1OC(=O)N2CCCCc1ccnc2c(C(F)(F)F)cccc12 (stereo not drawn) [Compound 20q]    0.4
CC[C@H]1OC(=O)[C@@](C)(F)C(=O)[C@H](C)[C@@H](OC2O[C@H](C)C[C@H](N(C)C)[C@H]2O)[C@@](C)(OC)C[C@@H](C)C(=O)[C@H](C)[C@H]2N(CCCC(C)(C)n3cnc4ncccc43)C(=O)O[C@]12CC (stereo partly drawn)    0.4
CCC1OC(=O)C(C)C(=O)C(C)C(OC2OC(C)CC(N(C)C)C2O)C(C)(OC)CC(C)C(=O)C(C)C2C1OC(=O)N2CCCCn1ccc2ncccc21 (stereo not drawn) [Compound 20m]    0.2
CCC1OC(=O)C(C)C(=O)C(C)C(OC2OC(C)CC(N(C)C)C2O)C(C)(OC)CC(C)C(=O)C(C)C2C1OC(=O)N2CCCCc1cnc2ccccc2c1 (stereo not drawn) [Compound 20n]    0.4
CCC1OC(=O)C(C)C(=O)C(C)C(OC2OC(C)CC(N(C)C)C2O)C(C)(OC)CC(C)C(=O)C(C)C2C1OC(=O)N2CCCOc1ccc(-c2cccnc2)cc1 (stereo not drawn) [Compound 20r]    1.56
CC[C@H]1OC(=O)[C@H](C)C(=O)[C@H](C)[C@@H](OC2O[C@H](C)C[C@H](N(C)C)[C@H]2O)[C@@](C)(OC)C[C@@H](C)C(=O)[C@H](C)[C@H]2N(CCCC(C)(C)n3cnc(-c4cccnc4)c3)C(=O)O[C@]12CC (stereo partly drawn)    0.4

Record MIC per entry; entries follow.
1. CC[C@H]1OC(=O)[C@@](C)(F)C(=O)[C@H](C)[C@@H](OC2O[C@H](C)C[C@H](N(C)C)[C@H]2O)[C@@](C)(OC)C[C@@H](C)C(=O)[C@H](C)[C@H]2N(CCCCc3ccc4ccccc4n3)C(=O)O[C@]12CC (stereo partly drawn)
2. CCC1OC(=O)C(C)C(=O)C(C)C(OC2OC(C)CC(N(C)C)C2O)C(C)(OC)CC(C)C(=O)C(C)C2C1OC(=O)N2CCCCc1cc(C(F)(F)F)nc2ccccc12 (stereo not drawn) [Compound 20p]
3. CCC1OC(=O)C(C)C(=O)C(C)C(OC2OC(C)CC(N(C)C)C2O)C(C)(OC)CC(C)C(=O)C(C)C2C1OC(=O)N2OCCOc1ccccc1 (stereo not drawn) [Compound 20w]
4. CC[C@H]1OC(=O)[C@@](C)(F)C(=O)[C@H](C)[C@@H](OC2O[C@H](C)C[C@H](N(C)C)[C@H]2O)[C@@](C)(OC)C[C@@H](C)C(=O)[C@H](C)[C@H]2N(CCCC(C)(C)n3cnc4cccnc43)C(=O)O[C@]12CC (stereo partly drawn)
5. C=C[C@]12OC(=O)N(CCCCn3cnc(-c4cccnc4)c3)[C@@H]1[C@@H](C)C(=O)[C@H](C)C[C@](C)(OC)[C@H](OC1O[C@H](C)C[C@H](N(C)C)[C@H]1O)[C@@H](C)C(=O)[C@@H](C)C(=O)O[C@@H]2CC (stereo partly drawn)
6. CCC1OC(=O)C(C)C(=O)C(C)C(OC2OC(C)CC(N(C)C)C2O)C(C)(OC)CC(C)C(=O)C(C)C2C1OC(=O)N2CCCCc1ncc(-c2ccccc2)s1 (stereo not drawn) [Compound 20t]
7. C/C=C/[C@]12OC(=O)N(CCCCn3cnc(-c4cccnc4)c3)[C@@H]1[C@@H](C)C(=O)[C@H](C)C[C@](C)(OC)[C@H](OC1O[C@H](C)C[C@H](N(C)C)[C@H]1O)[C@@H](C)C(=O)[C@@H](C)C(=O)O[C@@H]2CC (stereo partly drawn)
8. CCC1OC(=O)C(C)C(=O)C(C)C(OC2OC(C)CC(N(C)C)C2O)C(C)(OC)CC(C)C(=O)C(C)C2C1OC(=O)N2CCCCc1ncc(-c2ccc(F)cc2F)s1 (stereo not drawn) [Compound 20u]

Response line:
1. 0.2
2. 0.4
3. 3.13
4. 0.2
5. 0.2
6. 0.4
7. 3.13
8. 0.4

* * *

system: Staphylococcus epidermidis Step_14990; experiment: MIC, broth microdilution (NCCLS); assay type: cell-based; settings: Table 5, Strain ID A (Table 4): S. epidermidis Step_14990; in µg/mL (unit assumed)
Field: MIC. Provide a value for each of the compounds that follow.
Answers are plain numbers.

Worked set:
CC[C@H]1OC(=O)[C@H](C)C(=O)[C@H](C)[C@@H](OC2O[C@H](C)C[C@H](N(C)C)[C@H]2O)[C@@](C)(OC)C[C@@H](C)C(=O)[C@H](C)[C@@H]2[C@@H]1OC(=O)N2CCCCc1ccnc2ccccc12 (stereo partly shown) [Compound 6220]    0.1
CC[C@H]1OC(=O)[C@H](C)C(=O)[C@H](C)[C@@H](OC2O[C@H](C)C[C@H](N(C)C)[C@H]2O)[C@@](C)(OC)C[C@@H](C)C(=O)[C@H](C)[C@@H]2[C@@H]1OC(=O)N2CCCCn1ccc2ccccc21 (stereo partly shown) [Compound 4717]    0.2
CC[C@H]1OC(=O)[C@H](C)C(=O)[C@H](C)[C@@H](OC2O[C@H](C)C[C@H](N(C)C)[C@H]2O)[C@@](C)(OC)C[C@@H](C)C(=O)[C@H](C)[C@@H]2[C@@H]1OC(=O)N2CCCn1cnc(-c2ccccc2)c1 (stereo partly shown) [Compound 4714]    6.25

Consider now this further compound.
Prompt line: Form field: reported MIC of CC[C@H]1OC(=O)[C@H](C)C(=O)[C@H](C)[C@@H](OC2O[C@H](C)C[C@H](N(C)C)[C@H]2O)[C@@](C)(OC)C[C@@H](C)C2=NCCN3C(=O)O[C@H]1[C@H]3[C@H]2C (stereo partly shown) [Compound 6222]
Response line: 1.56

Provenance of the data: patent US7332476B2
